# System: KRAS PDC multicell spheroid viability;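 also: drug exposure lasted seven days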
# testDetails: Anticancer human tumor 521955-158-R6-J3-PDC patient-derived pancreatic carcinoma cell line growth inhibition [KRAS2]
# settings: curve of first compound; second compound 0.1 µM
# From the text: Multicellular complex tumor spheroid response to RAS pathway inhibitors in combination with a targeted agents in patient-derived cell lines with oncogenic KRAS variants from multiple cancer types A high-throughput screen of multi-cell type tumor spheroids was designed to identify active combinations of targeted small molecules and KRAS pathway inhibitors. […] Compounds. […] If the clinical Cmax for an agent had not been determined, the highest concentration tested was 10 microM. […]
valueKind: IC50

Examples from the recorded data:
CCN1CCN(Cc2ccc(Nc3ncc(F)c(-c4cc(F)c5nc(C)n(C(C)C)c5c4)n3)nc2)CC1 + C=CC(=O)N1CCN(c2nc(=O)n(-c3c(C)ccnc3C(C)C)c3nc(-c4c(O)cccc4F)c(F)cc23)C(C)C1    > 1000 nM
CC(=O)OC12COC1CC(O)C1(C)C(=O)C(O)C3=C(C)C(OC(=O)C(O)C(NC(=O)OC(C)(C)C)c4ccccc4)CC(O)(C(OC(=O)c4ccccc4)C21)C3(C)C (stereo unspecified) + CC1OCC2(CCN(c3cnc(Sc4ccnc(N)c4Cl)c(N)n3)CC2)C1N    > 3160 nM
CC(C)NCC(C(=O)N1CCN(c2ncnc3c2C(C)CC3O)CC1)c1ccc(Cl)cc1 (stereo unspecified) + COc1cc2nc(C)nc(NC(C)c3cc(N)cc(C(F)(F)F)c3)c2cc1OC1CCOC1    > 10000 nM
CCN1CCN(Cc2ccc(Nc3ncc(F)c(-c4cc(F)c5nc(C)n(C(C)C)c5c4)n3)nc2)CC1 + COc1cc2nc(C)nc(NC(C)c3cc(N)cc(C(F)(F)F)c3)c2cc1OC1CCOC1    > 1000 nM
CC1(C)CCC(CN2CCN(c3ccc(C(=O)NS(=O)(=O)c4ccc(NCC5CCOCC5)c([N+](=O)[O-])c4)c(Oc4cnc5[nH]ccc5c4)c3)CC2)=C(c2ccc(Cl)cc2)C1 + C=CC(=O)N1CCN(c2nc(OCC3CCCN3C)nc3c2CCN(c2cccc4cccc(C)c24)C3)CC1CC#N    4480 nM
CC1COCCN1c1cc(-c2ccnn2C)c2ccnc(-c3ccn[nH]3)c2n1 (stereo unspecified) + COc1cc2nc(C)nc(NC(C)c3cc(N)cc(C(F)(F)F)c3)c2cc1OC1CCOC1    > 3160 nM

Sample CN(C)C/C=C/C(=O)Nc1cc2c(Nc3ccc(F)c(Cl)c3)ncnc2cc1O[C@H]1CCOC1 + CC1OCC2(CCN(c3cnc(Sc4ccnc(N)c4Cl)c(N)n3)CC2)C1N ; IC50 observed: > 100 nM

Reported IC50 of COc1cc(Nc2ncc3c(n2)-c2ccc(Cl)cc2C(c2c(F)cccc2OC)=NC3)ccc1C(=O)O + COc1cc2nc(C)nc(NC(C)c3cc(N)cc(C(F)(F)F)c3)c2cc1OC1CCOC1 : > 10000 nM

// IC50 value for CC(=O)Nc1cccc(-n2c(=O)n(C3CC3)c(=O)c3c(Nc4ccc(I)cc4F)n(C)c(=O)c(C)c32)c1 + C=CC(=O)N1CCN(c2nc(=O)n(-c3c(C)ccnc3C(C)C)c3nc(-c4c(O)cccc4F)c(F)cc23)C(C)C1 : 25.5 nM

IC50 recorded for this molecule, COC(=O)c1ccc2c(C(=Nc3ccc(N(C)C(=O)CN4CCN(C)CC4)cc3)c3ccccc3)c(O)[nH]c2c1 + C=CC(=O)N1CCN(c2nc(OCC3CCCN3C)nc3c2CCN(c2cccc4cccc(C)c24)C3)CC1CC#N , is 2840 nM

The molecule CC1COCCN1c1cc(-c2ccnn2C)c2ccnc(-c3ccn[nH]3)c2n1 (stereo unspecified) + CNCc1ccccc1-c1csc(C(C)Nc2nc(C)nc3cc(OC)c(OC)cc23)c1 showed IC50 equal to > 3160 nM
